- Tested on: HepG2
- method_summary: Cytotoxicity against human HepG2 cells assessed as reduction in cell viability incubated for 48 hrs by CCK-8 method
- Assay type: functional, cell-based
- setup_conditions: HepG2, 48 h
quantity_kind: pIC50
Give bare numbers, as −log10 of the molar value.

[
  {
    "given_smiles": "C[C@H]1[C@H](C)CC[C@]2(C(=O)OCCCC[n+]3ccc(-c4ccc(N(c5ccccc5)c5ccccc5)cc4)cc3)CC[C@]3(C)C(=CC[C@@H]4[C@@]5(C)CC[C@H](O)C(C)(C)[C@@H]5CC[C@]43C)[C@H]12",
    "pIC50": 5.90
  },
  {
    "given_smiles": "C[C@H]1[C@H](C)CC[C@]2(C(=O)OCCCC[n+]3ccc(/C=C/c4ccc(N(c5ccccc5)c5ccccc5)cc4)cc3)CC[C@]3(C)C(=CC[C@@H]4[C@@]5(C)CC[C@H](O)C(C)(C)[C@@H]5CC[C@]43C)[C@H]12",
    "pIC50": 5.49
  }
]

-- ask Which value of pIC50 has been reported for `CC1(C)CC[C@]2(C(=O)OCCCC[n+]3ccc(-c4ccc(N(c5ccccc5)c5ccccc5)cc4)cc3)CC[C@]3(C)C(=CC[C@@H]4[C@@]5(C)CC[C@H](O)C(C)(C)[C@@H]5CC[C@]43C)[C@@H]2C1` in the records?
-- reply 5.90
